B1: EEHEE_rd3_0130 (parent)
chain: TKIIVNGKTFTAPTEEEAQKIAEKLAKKAGLTVHKKNGTFELK

- Variants of: B1
- assay.details: folding stability dG (cDNA display proteolysis); higher = more stable
- measurement.context: PBS, room temperature
Dear colleague, classification is by folding stability dG, with ranges listed here: lower bin = under 1 kJ/mol, middle bin = from 1 kJ/mol up to 3 kJ/mol, upper bin = 3 kJ/mol and over

// bin(item) where item = "G7H"
lower bin

// bin(item) where item = "G38D"
middle bin

// bin(item) where item = "A26Y"
lower bin

// bin(item) where item = "A26I"
lower bin

// bin(item) where item = "N6E"
middle bin

// bin(item) where item = "A29T"
upper bin

// bin(item) where item = "L25D"
lower bin

// bin(item) where item = "K2H"
middle bin

// bin(item) where item = "Q19I"
middle bin

// bin(item) where item = "L42K"
lower bin

// bin(item) where item = "P13T"
middle bin

// bin(item) where item = "T1M"
middle bin

// bin(item) where item = "I4L"
middle bin

// bin(item) where item = "I21T"
lower bin

// bin(item) where item = "G30C"
upper bin

// bin(item) where item = "V5F"
upper bin

// bin(item) where item = "L42F"
lower bin

// bin(item) where item = "T39N"
upper bin

// bin(item) where item = "Q19W"
upper bin

// bin(item) where item = "A26C"
middle bin

// bin(item) where item = "T1E"
lower bin

// bin(item) where item = "T1I"
upper bin

// bin(item) where item = "V33T"
lower bin

// bin(item) where item = "K27C"
upper bin

// bin(item) where item = "P13F"
middle bin

// bin(item) where item = "Q19N"
middle bin

// bin(item) where item = "V5W"
upper bin

// bin(item) where item = "N6H"
upper bin

// bin(item) where item = "T9Q"
middle bin

// bin(item) where item = "L42W"
lower bin

// bin(item) where item = "K27N"
middle bin

// bin(item) where item = "A12F"
upper bin

Values were extracted from the MegaScale stability set (Tsuboyama et al. 2023).
